These data points were gathered from the supplement of paper PMC10567573.

B1: EHMT1 (parent)
chain: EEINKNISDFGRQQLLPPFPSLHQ

Variants of: B1
measurement_description: protein stability index of a GFP-peptide fusion (GPS, HEK-293T) (PSI 1-6); higher = more stable;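 also: lentivirally expressed fusions sorted by FACS into six bins by GFP to DsRed ratio, PSI derived from sequencing read proportions per bin multiplied by bin number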
condition_set: c terminus: a fixed tail appended
# if value of protein stability index reaches 3, tag true (1); if it stays below, tag false (0)

q: Exam item: decide whether the reported protein stability index for `E1I` is at least 3.
a: false (0)

q: Could you verify whether the entry `L15G` shows protein stability index of no less than 3?
a: true (1)

q: Form field: protein stability index at least 3? Entry: `E2W`
a: false (0)

q: Decide: protein stability index of `D9R` >= 3?
a: false (0)

q: Test whether the variant `R12S` records protein stability index of 3 or higher.
a: true (1)

q: Does the reported protein stability index for `L16E` fall at or above the 3 mark?
a: true (1)
